Origin of measurements: patent US5470858A

Tested on: hyperlipaemic SD male rats
assay.info: Hypolipemizing activity, 5 days experimental model, modified Nath diet
Format: in vivo
particulars: rat, oral, 300 mg/kg/day, index = (Liver weight/body weight) × 100
observable: Hepatic index (percent variation vs hyperlipaemic controls)

Sample answers from the record:
Give Hepatic index (percent variation vs hyperlipaemic controls) for the following compound: CC(C)COC(=O)c1ccc(OCC(=O)CSc2nc3ccccc3s2)cc1 [Example 2]
-1,6%

Give Hepatic index (percent variation vs hyperlipaemic controls) for the following compound: CC(C)COC(=O)c1ccc(OCC(=O)CSc2nc3c(N)ncnc3n2[C@@H]2O[C@H](CO)[C@@H](O)[C@H]2O)cc1 [Example 28]
-5,5%

Give Hepatic index (percent variation vs hyperlipaemic controls) for the following compound: CC(C)COC(=O)c1ccc(OCCSc2nc3c(N)ncnc3n2[C@@H]2O[C@H](CO)[C@@H](O)[C@H]2O)cc1 [Example 27]
+0,7%

Now take the following compound into account.
Give Hepatic index (percent variation vs hyperlipaemic controls) for the following compound: CC(C)COC(=O)c1ccc(OCC(=O)CSc2nc3c([nH]2)c(=O)n(C)c(=O)n3C)cc1 [Example 3]
-1,5%

----------
Tested on: hyperlipaemic SD male rats
assay.info: Hypolipemizing activity, 5 days experimental model, modified Nath diet
Assay type: in vivo
particulars: rat, oral, 300 mg/kg/day, index = (Liver weight/body weight) × 100
Counter-ions that a name gives are not always drawn.
observable: Hepatic index (percent variation vs hyperlipaemic controls)

Report measured Hepatic index (percent variation vs hyperlipaemic controls) on hyperlipaemic SD male rats; entry: CC(C)COC(=O)c1ccc(OCC(O)CSc2nc3cc4ccccc4cc3o2)cc1 (stereo not drawn)
+0,6%

Report measured Hepatic index (percent variation vs hyperlipaemic controls) on hyperlipaemic SD male rats; entry: CC(C)COC(=O)c1ccc(OCC(CSc2nc3c(N)ncnc3n2[C@@H]2O[C@H](CO)[C@@H](O)[C@H]2O)=NO)cc1
-1,5%

Others:
Report measured Hepatic index (percent variation vs hyperlipaemic controls) on hyperlipaemic SD male rats; entry: CC(C)COC(=O)c1ccc(OCC(O)CSc2nc3ccccc3s2)cc1 (stereo not drawn)
+0,4%

Report measured Hepatic index (percent variation vs hyperlipaemic controls) on hyperlipaemic SD male rats; entry: CC(C)COC(=O)c1ccc(OCCCSc2nc3c(N)ncnc3n2[C@@H]2O[C@H](CO)[C@@H](O)[C@H]2O)cc1
-2,8%

Report measured Hepatic index (percent variation vs hyperlipaemic controls) on hyperlipaemic SD male rats; entry: CC(C)COC(=O)c1ccc(OCC(=O)CSc2nc3ccccc3o2)cc1
-2,5%

Report measured Hepatic index (percent variation vs hyperlipaemic controls) on hyperlipaemic SD male rats; entry: CC(C)COC(=O)c1ccc(OCC(O)CSc2nccn2C)cc1 (stereo not drawn) [Example 4, hydrochloride]
+4,3%

Report measured Hepatic index (percent variation vs hyperlipaemic controls) on hyperlipaemic SD male rats; entry: CCOc1ccc2nc(SCC(O)COc3ccc(C(=O)OCC(C)C)cc3)sc2c1 (stereo not drawn)
-1,2%

Report measured Hepatic index (percent variation vs hyperlipaemic controls) on hyperlipaemic SD male rats; entry: CC(C)COC(=O)c1ccc(OCC(CSc2nc3c(N)ncnc3n2[C@@H]2O[C@H](CO)[C@@H](O)[C@H]2O)=NNC(N)=O)cc1
-2,5%

Report measured Hepatic index (percent variation vs hyperlipaemic controls) on hyperlipaemic SD male rats; entry: CC(C)COC(=O)c1ccc(OCC(O)CSc2nc3ccccc3[nH]2)cc1 (stereo not drawn)
+3,9%

----------
Test system: hyperlipaemic SD male rats
assay.info: Hypolipemizing activity, 15 days experimental model, modified diet
Format: in vivo
particulars: rat, oral, 100 mg/kg/day, index = (Liver weight/body weight) × 100
Recorded Hepatic index (percent variation vs hyperlipaemic controls), one value per entry.

Give Hepatic index (percent variation vs hyperlipaemic controls) for the following compound: CC(C)COC(=O)c1ccc(OCC(=O)CSc2nc3c(N)ncnc3n2[C@@H]2O[C@H](CO)[C@@H](O)[C@H]2O)cc1
-1,9%

Give Hepatic index (percent variation vs hyperlipaemic controls) for the following compound: CC(C)COC(=O)c1ccc(OCC(O)CSc2nc3ccccc3o2)cc1 (centres unmarked)
-3,1%

Give Hepatic index (percent variation vs hyperlipaemic controls) for the following compound: CC(C)COC(=O)c1ccc(OCC(O)CSc2nc3ccccc3s2)cc1 (centres unmarked)
-4,1%

Others:
Give Hepatic index (percent variation vs hyperlipaemic controls) for the following compound: CC(C)COC(=O)c1ccc(OCC(CSc2nc3c(N)ncnc3n2[C@@H]2O[C@H](CO)[C@@H](O)[C@H]2O)=NNC(N)=O)cc1
+3,9%

Give Hepatic index (percent variation vs hyperlipaemic controls) for the following compound: CC(C)COC(=O)c1ccc(OCC(=O)CSc2nc3ccccc3s2)cc1
-4,5%

----------
Tested on: hyperlipaemic SD male rats
assay.info: Hypolipemizing activity, 5 days experimental model, modified Nath diet
Type: in vivo
particulars: 120 h, rat, oral, 300 mg/kg/day, read-out: Total Cholesterol (percent variation vs hyperlipaemic controls)
Structures can show the parent of a compound that is named as a salt.
observable: change in vivo at 300 mg/kg/day (%)
Report as a plain number; the unit % is understood.

Report measured change in vivo at 300 mg/kg/day on hyperlipaemic SD male rats; entry: CC(C)COC(=O)c1ccc(OCC(=O)CSc2nc3c(N)ncnc3n2[C@@H]2O[C@H](CO)[C@@H](O)[C@H]2O)cc1
-31.3

Others:
Report measured change in vivo at 300 mg/kg/day on hyperlipaemic SD male rats; entry: CC(C)COC(=O)c1ccc(OCC(O)CSc2ncccn2)cc1 (stereo not shown) [Example 5, hydrochloride]
-20.3

Report measured change in vivo at 300 mg/kg/day on hyperlipaemic SD male rats; entry: CC(C)COC(=O)c1ccc(OCC(O)CSc2nc3ccccc3s2)cc1 (stereo not shown)
-24.9

Report measured change in vivo at 300 mg/kg/day on hyperlipaemic SD male rats; entry: CC(C)COC(=O)c1ccc(OCC(CSc2nc3c(N)ncnc3n2[C@@H]2O[C@H](CO)[C@@H](O)[C@H]2O)=NNC(N)=O)cc1
-44.1

----------
System: hyperlipaemic SD male rats
assay.info: Hypolipemizing activity, 15 days experimental model, modified diet
Type: in vivo
particulars: rat, oral, 50 mg/kg/day, index = (Liver weight/body weight) × 100
Recorded Hepatic index (percent variation vs hyperlipaemic controls), one value per entry.

Sample answers from the record:
Give Hepatic index (percent variation vs hyperlipaemic controls) for the following compound: CC(C)COC(=O)c1ccc(OCC(O)CSc2nc3ccccc3o2)cc1 (stereo not drawn)
+0,2%

Give Hepatic index (percent variation vs hyperlipaemic controls) for the following compound: CC(C)COC(=O)c1ccc(OCC(=O)CSc2nc3ccccc3s2)cc1
+3,5%

Others:
Give Hepatic index (percent variation vs hyperlipaemic controls) for the following compound: CC(C)COC(=O)c1ccc(OCC(CSc2nc3c(N)ncnc3n2[C@@H]2O[C@H](CO)[C@@H](O)[C@H]2O)=NNC(N)=O)cc1
+2,2%
